Please go through the items and note down their Hb.
# Species on record: Rattus norvegicus
# Protocol Description: Open TG-GATES - Regimen: Single
# Assay type: toxicity, organism-based, Sprague-Dawley
# Set-up: regimen Single, gender Male, age 6 weeks
# Measurement Parameters: in vivo, po, 300 mg/kg, 24 h, tissue Blood, route gavage, dose level Middle
# include the unit after the value

Solved entries (count: 4):
O=C(O)c1cc(/N=N/c2ccc(S(=O)(=O)Nc3ccccn3)cc2)ccc1O : 12.8 g/dL
Clc1ccccc1CN1CCc2sccc2C1 : 14.1 g/dL
C[C@H](CS)C(=O)N1CCC[C@H]1C(=O)O : 13.2 g/dL
CCc1cc(C(N)=S)ccn1 [ETHIONAMIDE] : 14.2 g/dL

Switching to the query record.
**Q:** Query (compound): `O=C(O)c1cn(C2CC2)c2cc(N3CCNCC3)c(F)cc2c1=O` ; field requested: Hb
**A:** 12.9 g/dL
